Reported Kd values for a set of binders
# measured on: T1, SARS-CoV-2 Receptor Binding Domain (RBD) protein (SARS-CoV-2, UniProt P0DTC2 319-541)
# T1 construct: also called Sars-Cov-2 (COV2)
# test method notes: SPR (Carterra LSA); scFv captured by anti-V5, RBD as analyte
parameter: Kd (nM)

binder	recorded result
COVID19_P13_B12 (scFv, V domains shown) VH: QVQLVQSGAEVKKPGSSVKVSCKASGYTFTDFHMHWVRQAPGQGLEWMGGIIPIFGTANYAQKFQGRVTITADESTSTAYMELSSLRSEDTAVYYCALETVMGGMDVWGQGTLVTVSS VL: SSYVLTQPPSVSVAPGKTARITCGGNNIGSKSVHWYQQKPGQAPVLVIYYDSDRPSGIPERFSGSNSGNTATLTISRVEAGDEADYYCQVWDSSSDYVFGGGTKLTVLA	32.7
COVID19_P13_C07 (scFv, V domains shown) VH: QVQLVQSGAEVKKPGSSVKVSCKASGGTFSRYDINWVRQAPGQGLEWMGIINPSGGSTTYAQKFQGRVTITADESTSTAYMELSSLRSEDTAVYYCAHDTVMGGMDVWGQGTLVTVSS VL: SSYVLTQPPSVSVAPGKTARITCGGNNIGSKSVHWYQQKPGQAPVLVIYYDSDRPSGIPERFSGSNSGNTATLTISRVEAGDEADYYCQVWDSSSYYVFGGGTKLTVLA	41.5
COVID19_P14_F06 (scFv, V domains shown) VH: QVQLVQSGAEVKKPGSSVKVSCKASGGTFSSFAIIWVRQAPGQGLEWMALINPSSGTTSYAQKFQGRVTITADESTSTAYMELSSLRSEDTAVYYCARETVMGGMDVWGQGTLVTVSS VL: SSYVLTQPPSVSVAPGKTARITCGGNNIGSKSVHWYQQKPGQAPVLVIYYDSDRPSGIPERFSGSNSGNTATLTISRVEAGDEADYYCQVWDSSSHYVFGGGTKLTVLA	48.3
COVID19_P14_B05 (scFv, V domains shown) VH: QVQLVQSGAEVKKPGSSVKVSCKASGGTFSSYTISWVRQAPGQGLEWMGIINPSGGSTSYAQKFQGRVTITADESTSTAYMELSSLRSEDTAVYYCARDTVMGGMGVWGQGTLVTVSS VL: SSYVLTQPPSVSVAPGKTARITCGGNNIGSKSVHWYQQKPGQAPVLVIYYDSDRPSGIPERFSGSNSGNTATLTISRVEAGDEADYYCQVWDSSSFYVFGGGTKLTVLA	48
COVID19_P02_A04 (scFv, V domains shown) VH: QVQLVQSGAEVKKPGSSVKVSCKASGYAFTSYYMHWVRQAPGQGLEWMGVIDPSEGSTSNARKFQGRVTITADESTSTAYMELSSLRSEDTAVYYCVSDTVMGGMDVWGQGTLVTVSS VL: SSYVLTQPPSVSVAPGKTARITCGGNNIGSKSVHWYQQKPGQAPVLVVYDDSDRPSGIPERFSGSNSGNTATLTISRVEAGDEADYYCQVWDSSSLYVFGGGTKLTVLA	41.4
COVID19_P01_H04 (scFv, V domains shown) VH: QVQLVQSGAEVKKPGSSVKVSCKASGYPFSSYEINWVRQAPGQGLEWMGGITPIFGTANYAQKFQGRVTITADESTSTAYMELSSLRSEDTAVYYCADETVMGGMDVWGQGTLVTVSS VL: SSYVLTQPPSVSVAPGKTARITCGGNNIGSKSVHWYQQKPGQAPVLVIYYDSDRPSGIPERFSGSNSGNTATLTISRVEAGDEADYYCQVWDSSNDYVFGGGTKLTVLA	0.95
COVID19_P01_E06 (scFv, V domains shown) VH: QVQLVQSGAEVKKPGSSVKVSCKASGCTFTRFTMHWVRQAPGQGLEWMGGITPIFGITNYAQKFQGRVTITADESTSTAYMELSSLRSEDTAVYYCAHDTVMGGMEEWGQGTLVTVSS VL: SSYVLTQPPSVSVAPGKTARITCGGNNIGSKSVHWYQQKPGQAPVLVIYYDSDRPSGIPERFSGSNSGNTATLTISRVEAGDEADYYCQVWDSSNDYVFGGGTKLTVLA	48.7
COVID19_P14_B07 (scFv, V domains shown) VH: QVQLVQSGAEVKKPGSSVKVSCKASGYTFTSYGISWVRQAPGQGLEWMGWINPNSGGTNYAQKFQGRVTITADESTSTAYMELSSLRSEDTAVYYCAVETVMGGFTVWGQGTLVTVSS VL: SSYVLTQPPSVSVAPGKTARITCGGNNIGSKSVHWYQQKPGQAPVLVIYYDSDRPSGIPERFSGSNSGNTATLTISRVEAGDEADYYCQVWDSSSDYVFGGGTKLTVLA	34.2
COVID19_P02_D10 (scFv, V domains shown) VH: QVQLVQSGAEVKKPGSSVKVSCKASGYMFTEFYMHWVRQAPGQGLEWMGGIIPVSGTANYAQKFQGRVTITADESTSTAYMELSSLRSEDTAVYYCARETVMGGMDVWGQGTLVTVSS VL: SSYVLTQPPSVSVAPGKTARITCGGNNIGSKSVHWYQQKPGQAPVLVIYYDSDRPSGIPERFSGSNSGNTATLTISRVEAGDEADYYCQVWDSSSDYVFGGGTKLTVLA	26.4
COVID19_P14_D07 (scFv, V domains shown) VH: QVQLVQSGAEVKKPGSSVKVSCKASGYTFSSFYIHWVRQAPGQGLEWMGGIIPIFGEAEYAHKFQGRVTITADESTSTAYMELSSLRSEDTAVYYCAMETVMGGMDVWGQGTLVTVSS VL: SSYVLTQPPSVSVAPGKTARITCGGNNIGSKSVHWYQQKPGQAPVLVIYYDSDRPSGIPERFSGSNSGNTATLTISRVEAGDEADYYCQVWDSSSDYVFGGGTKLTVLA	6.08
